Cited source: patent US9725518B2

assay.comment: Soluble aggregates of transiently expressed antibodies
Assay type: physicochemical
experimental.parameters: Protein A purified antibody
measured.quantity: % soluble aggregate (%)

>>> recorded_value("J1-65D variant 9: humanised/de-immunised J1-65D: J1-65D_VL_3 + J1-65D_VH_1 (antibody, V domains shown) VH: QVQLVQSGAELKKPGSSVKVSCKASGYTFTDYEMHWVRQAPGQGLEWMGAIQPGGGGTAYNQKFKGRVTLTADKSTSTAYMELSSLRSEDTAVYYCTRRGYDDYPFAYWGQGTLVTVSSASTKGP VL: DIQMTQSPSSLSASVGDRVTITCRASGNIHNYLAWYQQKPGKAPKLLIYNAKTLADAVPSRFSGSGSGTDYTLTISSLQPEDFATYYCQHFWSAPWTFGQGTKLEIKRT")
0
